The measured values listed here are drawn from patent US7008950B1.

Examples of compounds with documented Cell Protecting Activity (%) follow.
- System: human neuroblastoma SK—N—SH cells
- experimental details: Cell protective activity against β-amyloid 25-35-induced neurotoxicity (Alamar Blue cell viability)
- Type: cell-based
- setup conditions: test compound 1 μM with β-amyloid 25-35 10 μM; rhIFN-γ-pretreated SK—N—SH cells; viability by Alamar Blue after 3 days; [(A−B)/(C−B)]×100
Please give a number only; it is taken to be in %.

Known results for compounds:
| compound | subject of test | Cell Protecting Activity (%) |
| --- | --- | --- |
| Cc1c(C)c2c(c(C)c1OCCc1ccccc1)C(c1ccc(C(C)C)cc1)C(C)(C)O2 (stereo not shown) [Example 25] | human neuroblastoma SK—N—SH cells | 47.0 |
| Cc1c(C)c2c(c(C)c1OCCC(c1ccccc1)c1ccccc1)C(c1ccc(C(C)C)cc1)C(C)(C)O2 (stereo not shown) [Example 14] | human neuroblastoma SK—N—SH cells | 44.2 |
| Cc1c(C)c2c(c(C)c1OCc1ccccc1)C(c1ccc(C(C)C)cc1)C(C)(C)O2 (stereo not shown) [Example 1] | human neuroblastoma SK—N—SH cells | 30.7 |

Ask: Reported Cell Protecting Activity (%), compound Cc1c(C)c2c(c(C)c1OCc1ccccc1)CC(C)(CN1CCN(c3ccccc3)CC1)O2 (stereo not shown) [Example 3] : ____
Result: 39.4

Ask: Reported Cell Protecting Activity (%), compound Cc1c(C)c2c(c(C)c1OCC=Cc1ccccc1)C(c1ccc(C(C)C)cc1)C(C)(C)O2 (stereo not shown) [Example 12] : ____
Result: 44.8

Ask: Reported Cell Protecting Activity (%), compound Cc1c(C)c2c(c(C)c1OCc1ccccc1)C(c1ccc(N(C)C)cc1)C(C)(C)O2 (stereo not shown) [Example 2] : ____
Result: 27.9

Ask: Reported Cell Protecting Activity (%), compound COc1ccc(COc2c(C)c(C)c3c(c2C)C(c2ccc(N4CCOCC4)cc2)C(C)(C)O3)cc1 (stereo not shown) [Example 7] : ____
Result: 27.3
